- MEASUREMENT NOTES: Quantum yield measurements versus Acridine Yellow in EtOH
- Type: physicochemical
- ASSAY CONTEXT: MKAC compound library; quantum yield
RESULT TYPE: φ (%)
The response must be a number in % with no trailing unit.

Worked set:
CCCc1cn(-c2ccc3n2[B-](F)(F)[N+]2=C(NCc4ccccc4OCC)C=CC2=C3c2ccc(NC(C)=O)cc2)nn1    20.07
CC(=O)Nc1ccc(C2=C3C=CC(NCc4ccccc4C)=[N+]3[B-](F)(F)n3c2ccc3-n2cc(CC3CCCCC3)nn2)cc1    21.14

Q: Which measured φ (%) value corresponds to CCCC(C)c1cn(-c2ccc3n2[B-](F)(F)[N+]2=C(NCc4cc(F)cc(F)c4)C=CC2=C3c2ccc(NC(C)=O)cc2)nn1 (stereo not shown) ?
Result: 27.73

Q: What about this compound? CCOc1ccccc1CNC1=[N+]2C(=C(c3ccc(NC(C)=O)cc3)c3ccc(-n4cc(CC(C)C)nn4)n3[B-]2(F)F)C=C1
Result: 22.79
